Assay: Primary qHTS for inhibitors of nuclear receptor binding SET domain protein 2 (NSD2) in an isogenic RCH-ACV NSD2 p.E1099K mutant (9B) (AID 1645876); note: nearly all actives have a fitted effect of over 70% in size
Conditions: RCH-ACV (leukaemia line) NSD2 E1099K (9B) viability, CellTiter-Glo, 72 h; series mostly up to 44.9 µM
Records with an inconclusive call do not appear. Calls of active or inactive are those of the source. Calls come from the whole dose curve; as a rule, active = well fitted inhibition curve with a large enough effect; inconclusive = small, poorly fitted or top-dose-only effect; inactive = flat fitted curve, though single readings scatter.
Field 'call' accepts active, inactive

IN: State the result this test recorded for Cc1cc2c(F)c(Oc3ncnn4cc(OC[C@@H](C)O)c(C)c34)ccc2[nH]1 .
OUT: active

IN: State the result this test recorded for O=C(O)[C@@H](c1ccc(OCc2ccc3ccccc3n2)cc1)C1CCCC1 .
OUT: inactive

IN: State the result this test recorded for NS(=O)(=O)c1cc2c(cc1Cl)NC=NS2(=O)=O .
OUT: inactive

IN: State the result this test recorded for OC(CN1CCC(Cc2ccc(F)cc2)CC1)c1ccc(Cl)cc1 (stereo not given) .
OUT: inactive

IN: State the result this test recorded for c1ccc(-c2nn3c(c2-c2ccnc4cc(OCCN5CCOCC5)ccc24)CCC3)nc1 .
OUT: active

---

Assay: qHTS for identification of novel therapeutic agents for treatment of microphthalmiaassociated transcription factor (MiT) renal cell carcinoma (RCC) (AID 1963991);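 note: curves scaled with 100% = DMSO viability and 0% = empty wells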
Settings: TFE3-RCC UOK109 viability, CellTiter-Glo, 48 h; measured here: UOK109 Z-AUC; stronger effect = lower value
Records with an inconclusive call do not appear.
For each of the molecules below, state its z-score.
Numbers only.

The examples below pair each entry with its known result.
>  <molecule>
N[C@@H]1CONC1=O

>  <z-score>
0.394

$$$$
>  <molecule>
c1ccc([C@H]2CN3CCSC3=N2)cc1

>  <z-score>
0.343

$$$$

For each of the molecules below, note its z-score.
1. COc1ccc(CC2=NN3C([C@@H](CCc4ccccc4)[C@@H](C)O)=NC(C)C3C(=O)N2)cc1OC (stereo not given in full)
2. NS(=O)(=O)c1cc2c(cc1Cl)NC=NS2(=O)=O
3. O=C(O)[C@@H](c1ccc(OCc2ccc3ccccc3n2)cc1)C1CCCC1
4. O=NN(CCCl)C(=O)NCCCl
5. Cc1c(C)c2c(c(C)c1O)CCC(C)(COc1ccc(CC3SC(=O)NC3=O)cc1)O2 (stereo not given)
6. NC(=O)c1ccc(-c2nc(-c3ccc4c(c3)OCO4)c(-c3ccccn3)[nH]2)cc1
7. O=C(O)COCCN1CCN(C(c2ccccc2)c2ccc(Cl)cc2)CC1 (stereo not given)

OUT:
1. 1.24
2. 0.178
3. 0.431
4. -0.0741
5. 0.729
6. 0.874
7. 0.871

---

Tested on: SC27B
Assay: qHTS profiling for inhibitors of Plasmodium falciparum proliferation (AID 504749); note: nearly all actives have a fitted effect of over 60% in size
Conditions: P. falciparum in erythrocytes, SYBR Green DNA, 72 h; series mostly up to 28.7 µM
Results filed as inconclusive are left out. Activity calls are given as the source filed them. Calls follow the shape of the dose curve; as a rule, active = well fitted inhibition curve with a large enough effect; inconclusive = small, poorly fitted or top-dose-only effect; inactive = flat fitted curve, though single readings scatter.
Field 'call' accepts 1 (active), 0 (inactive)

Past entries and their recorded results:
>  <compound>
N[C@@H]1CONC1=O

>  <discrete_label>
0

$$$$
>  <compound>
Clc1ccc(Nc2nnc(Cc3ccncc3)c3ccccc23)cc1

>  <discrete_label>
0

$$$$
>  <compound>
N=c1nc(N2CCCCC2)cc(N)n1O

>  <discrete_label>
0

$$$$
>  <compound>
CCCCNc1cc(C(=O)O)cc(S(N)(=O)=O)c1Oc1ccccc1

>  <discrete_label>
0

$$$$
>  <compound>
O=c1[nH]cnc2[nH]ncc12

>  <discrete_label>
0

$$$$

IN: State the result this test recorded for Oc1ccc(C2CNCCc3c2cc(O)c(O)c3Cl)cc1 (stereo not drawn) .
OUT: 0

IN: State the result this test recorded for CC(C)C[C@H](NC(=O)[C@@H](O)[C@H](N)Cc1ccccc1)C(=O)O .
OUT: 1

IN: State the result this test recorded for O=c1n(CCCN2CCN(c3cccc(Cl)c3)CC2)nc2ccccn12 .
OUT: 0
